System: Escherichia coli TOP10
protocol_text: shrunken log2 fold change of peptide-encoding DNA abundance (4.5 h post-induction vs induction); higher = less antimicrobial activity (less host growth inhibition)
test_context: time post-induction: 4.5 h; library: site-saturation at positions 5, 18, 19, 20
Please provide measured shrunken log2 fold change for the entries that follow.
Give bare numbers.

Please review the following examples before continuing.
- sequence_string: "RRIRNRPPRLPRPRPRPREKPRP"
  quantitative_readout: 0.377
- sequence_string: "RRIRRRPPRLPRPRPRPCWGPRP"
  quantitative_readout: 0.0286
- sequence_string: "RRIRHRPPRLPRPRPRPWFIPRP"
  quantitative_readout: -0.775

List the reported shrunken log2 fold change of each sequence below.
1. RRIRKRPPRLPRPRPRPIQMPRP
2. RRIRRRPPRLPRPRPRPWQRPRP

1. -0.107
2. 0.188

====

Test system: Escherichia coli TOP10
protocol_text: shrunken log2 fold change of peptide-encoding DNA abundance (4.5 h post-induction vs induction); higher = less antimicrobial activity (less host growth inhibition)
test_context: time post-induction: 4.5 h; library: site-saturation at positions 5, 18, 19, 20
Rule: shrunken log2 fold change of -0.06 or more gives true; anything lower gives false.

Observe how each entry below is paired with its result.
- sequence_string: "RRIRTRPPRLPRPRPRPKKYPRP"
  classification: "false"
- sequence_string: "RRIRDRPPRLPRPRPRPAHAPRP"
  classification: "true"
- sequence_string: "RRIRERPPRLPRPRPRPDLRPRP"
  classification: "false"
- sequence_string: "RRIRPRPPRLPRPRPRPGKHPRP"
  classification: "false"
- sequence_string: "RRIRTRPPRLPRPRPRPYRDPRP"
  classification: "false"

Evaluate RRIRTRPPRLPRPRPRPEIGPRP : shrunken log2 fold change at minimum -0.06?
false

And what about the sequence RRIRCRPPRLPRPRPRPCFTPRP ?
false

Can you handle RRIRCRPPRLPRPRPRPYSGPRP next?
false

// repeat for RRIRTRPPRLPRPRPRPIPVPRP and report
false

RRIRRRPPRLPRPRPRPLSQPRP ?
true

And then RRIRVRPPRLPRPRPRPAIWPRP , what is it?
true

# iterate: RRIRFRPPRLPRPRPRPWHAPRP
false

What about this sequence? RRIRWRPPRLPRPRPRPDKGPRP
true

Lookup RRIRKRPPRLPRPRPRPVDAPRP
true

# iterate: RRIRVRPPRLPRPRPRPSGVPRP
true

RRIRTRPPRLPRPRPRPEHKPRP , same question.
false

Now this one: RRIRMRPPRLPRPRPRPIIGPRP
true

Would you kindly repeat that for RRIRGRPPRLPRPRPRPYSFPRP ?
true

Further, for RRIRHRPPRLPRPRPRPWPSPRP ?
true

And the next one, RRIRHRPPRLPRPRPRPSVGPRP ?
true

Repeat for the following sequence: RRIRYRPPRLPRPRPRPMMPPRP
true

// repeat for RRIRGRPPRLPRPRPRPMVQPRP and report
true

Cool, now RRIRTRPPRLPRPRPRPPYWPRP
true

====

System: Escherichia coli TOP10;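 note: peptides expressed intracellularly from a pBAD plasmid library in pooled LB shake-flask culture, induced with 0.3% L-arabinose, DNA abundance read by NGS, three biological replicates, DESeq2 with apeglm shrinkage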
protocol_text: shrunken log2 fold change of peptide-encoding DNA abundance (4.5 h post-induction vs induction); higher = less antimicrobial activity (less host growth inhibition)
test_context: time post-induction: 4.5 h; library: site-saturation at positions 5, 18, 19, 20
Assign shrunken log2 fold change to each entry below.
Give bare numbers.

// known answers, use as guide
- sequence_string: "RRIRTRPPRLPRPRPRPQNWPRP"
  property_name: "shrunken log2 fold change"
  quantitative_readout: -0.265
- sequence_string: "RRIRMRPPRLPRPRPRPWPWPRP"
  property_name: "shrunken log2 fold change"
  quantitative_readout: -0.00171
- sequence_string: "RRIRRRPPRLPRPRPRPWKIPRP"
  property_name: "shrunken log2 fold change"
  quantitative_readout: -0.11
- sequence_string: "RRIRIRPPRLPRPRPRPCMTPRP"
  property_name: "shrunken log2 fold change"
  quantitative_readout: -0.337
- sequence_string: "RRIRWRPPRLPRPRPRPNGNPRP"
  property_name: "shrunken log2 fold change"
  quantitative_readout: 0.0106

For each listed entry, give its shrunken log2 fold change.
1. RRIRDRPPRLPRPRPRPSSHPRP
2. RRIRLRPPRLPRPRPRPMNAPRP
3. RRIRERPPRLPRPRPRPIDNPRP
4. RRIRERPPRLPRPRPRPYNGPRP
5. RRIRGRPPRLPRPRPRPNGDPRP
6. RRIRCRPPRLPRPRPRPNRQPRP
7. RRIRDRPPRLPRPRPRPFLSPRP

[-0.124, -0.446, -0.108, -0.509, 0.115, -0.216, 0.0846]
